target: dopamine autoreceptor (D2) (Rattus norvegicus, UniProt P61169); construct: homogenized rat striatal brain tissue; from tissue; host or cells: rat striatum, homogenate; experiment: Affinity for the dopamine autoreceptor, 3H-quinpirole binding in homogenized rat striatal brain tissue (D2 Quin.)
Sequence (P61169 whole entry): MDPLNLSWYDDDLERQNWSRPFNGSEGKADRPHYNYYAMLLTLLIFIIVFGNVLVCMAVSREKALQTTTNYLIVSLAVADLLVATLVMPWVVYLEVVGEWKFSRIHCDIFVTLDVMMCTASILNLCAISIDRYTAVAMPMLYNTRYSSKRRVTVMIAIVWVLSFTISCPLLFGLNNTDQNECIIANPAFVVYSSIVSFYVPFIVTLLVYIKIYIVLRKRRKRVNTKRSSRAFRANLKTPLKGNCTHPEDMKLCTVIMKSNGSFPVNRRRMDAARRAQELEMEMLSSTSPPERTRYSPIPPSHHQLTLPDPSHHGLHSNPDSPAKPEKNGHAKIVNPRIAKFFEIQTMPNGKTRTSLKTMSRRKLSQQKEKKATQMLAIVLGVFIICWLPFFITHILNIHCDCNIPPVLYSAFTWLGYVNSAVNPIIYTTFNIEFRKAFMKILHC
assay.endpoint: pIC50
# reply with the number alone; pIC50 is -log10 of concentration in mol/L

Fill in the blank: the reported pIC50 of Cc1ccc(CNCCOc2cccc3[nH]c(C(F)(F)C(F)(F)C(F)(F)F)nc23)cc1 [Example 12] is ____.
8.29

====

target: dopamine autoreceptor (D2) (Rattus norvegicus); construct: homogenized rat striatal brain tissue; from tissue; host or cells: rat striatum, homogenate; test: Affinity for the dopamine autoreceptor, 3H-quinpirole binding in homogenized rat striatal brain tissue (D2 Quin.); details: 3H-quinpirole, homogenized rat striatal brain tissue; read-out: IC50 (nM) D2 Quin.
Classes are defined on IC50 with ranges low bracket = under 1 nM, middle bracket = from 1 nM up to 8 nM, high bracket = 8 nM and over

Worked examples follow.
INSERT INTO assay_data (line_notation, assigned_class) VALUES
  ('Cc1ccc(CNCCOc2cccc3[nH]c(C(F)(F)C(F)(F)F)nc23)cc1', 'middle bracket'),
  ('Fc1ccc(CNCCOc2cccc3[nH]c(C(F)(F)F)nc23)cc1', 'low bracket'),
  ('FC(F)(F)c1nc2c(OCCNCc3ccccc3)cccc2[nH]1', 'low bracket'),
  ('FC(F)(F)c1nc2c(OCCNCCCc3ccccc3)cccc2[nH]1', 'low bracket'),
  ('Cc1nc2c(OCCNCc3ccccc3)cccc2[nH]1', 'high bracket');

Next, consider the following molecule.
Which of the defined bands does the recorded IC50 of FC(F)(F)c1nc2c(OCCCNCc3ccccc3)cccc2[nH]1 sit within?
high bracket
